Species: Rattus norvegicus
Protocol summary: In vitro inhibition of neuronal uptake against serotonin in rat whole brain
Assay type: functional
Measurement type: pIC50
When answering, recall that pIC50 equals minus log10 of the concentration in mol/L, and write that number alone.

In plain terms, Clc1ccccc1N1CC2(CCNCC2)c2ccccc21.O=C(O)/C=C\C(=O)O has a documented pIC50 of 5.77
